system: ATP; test: switch fluorescence ratio, 500 uM ATP over buffer (Cy3 cluster intensity, sum of 5 cycles each) (fold (ratio)); higher = stronger signal-on switching upon ATP binding; sequences stand for … in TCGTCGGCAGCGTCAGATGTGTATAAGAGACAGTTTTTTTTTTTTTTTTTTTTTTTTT…TC; settings: aptamer strand: ATP DNA aptamer (quencher-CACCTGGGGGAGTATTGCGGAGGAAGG + anchor), 100 nM annealed; ATP concentration: 500 uM;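 further: ATP exposure 15 min at 22 °C before imaging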
Known switch fluorescence ratio of a selection of sequences
# answer = number (no unit)

CTGGGACCAG	1.02
TTTTTCGGCT	0.985
ACATAAAGGG	1.03
TTCCGGTCCG	1.16

Entry under review: GATGGTGGTG . Reported switch fluorescence ratio?
1

For the sequence shown here, GAGTTTAGAT , give the reported switch fluorescence ratio.
0.994

Give the measured switch fluorescence ratio of TTTCGAATTT .
1.02

Source of measurements: the supplement of paper PMC10126150
